assay: Rotorod method for motor incordination in mice; assay type: in vivo; details: mouse, in vivo, oral, read-out: ED50, Rotorod method for motor incordination
property: TD50 (mg/kg)
Response body: numeric value in mg/kg, unit text excluded.

Req: Quick one: give measured TD50 for O=c1n(CCCN2CCN(c3cccc(Cl)c3)CC2)nc2ccccn12 [trazodone, reference compound]
Resp: 44.4

----------
assay: Lethal toxicity (ALD50) and first signs of pharmacologic activity (ATD50) in mice; settings: mouse, in vivo, oral, groups of 10, given as part of ALD50/ATD50 ratio, read-out: ATD50 (dose at which signs of pharmacologic activity are first evidenced)
# key: entry, value: TD50

# molecule, result
data = [
    ("O=c1n(CCCN2CCN(c3cccc(Cl)c3)CC2)nc2ccc3ccccc3n12 [Procedure 4]", "125 to 250 mg/kg"),
    ("O=c1n(CCCN2CCN(c3cccc(Cl)c3)CC2)nc2ccccn12 [trazodone, reference compound]", "2 to 4 mg/kg"),
]

Field: next molecule
Req: Hello, please tell me recorded TD50 for this one: Cc1cc2nn(CCCN3CCN(c4cccc(Cl)c4)CC3)c(=O)n2c2ccccc12 [Procedure 6]
Resp: 8 to 15.7 mg/kg
